Experiment: chemical genetic growth profiling, strain panel (AID 1159580);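 further: tested at 20 µM; growth read once vehicle control cultures reached saturation at 30 °C; 1 = growth at the plate median or of vehicle wells; lower values mean less growth of the strain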
Conditions: S. cerevisiae deletion strains, growth OD, locus YDL185W, strain tfp1, active compounds read low
Among all 5,500 compounds or so, about 2,000 (36%) were called active. Another 18% or so got no clear call; they are omitted. Some of the results follow.
quantity: normalized growth
The reply should be a number, written without any unit.

[ask] Indicate the recorded normalized growth value for this molecule: C[C@H]1COc2c(N3CCN(C)CC3)c(F)cc3c(=O)c(C(=O)O)cn1c23
[reply] 1.02

[ask] Indicate the recorded normalized growth value for this molecule: COC(=O)C[C@H]1C2(C)CC34OC5(C)O[C@@]6([C@H](OC)C(OC(=O)C(C)C)[C@]7(C)C(/C(=C(/OC)C(C)C)C(=O)O[C@H]7c7ccoc7)[C@@]6(O5)[C@H](OC)[C@@]3(OC)C2OC(C)=O)[C@]14C (stereo partly drawn)
[reply] 1.02

[ask] Indicate the recorded normalized growth value for this molecule: CCC(C)C(=O)O[C@@H]1C[C@@]2(C)[C@H](c3ccoc3)OC(=O)CC23OC2(C)OC34[C@H](OC(=O)C(C)C)[C@@]3(O)[C@@H](OC(=O)C5(C)OC5C)[C@@]5(C)C[C@]3(O)[C@@](C)([C@H]5CC(=O)OC)C14O2 (stereo partly drawn)
[reply] 1.01

---

I'd be grateful if you could share measured normalized growth for these entries.
Test: chemical genetic growth profiling, strain panel (AID 1159580);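 further: tested at 20 µM; growth read once vehicle control cultures reached saturation at 30 °C; 1 = growth at the plate median or of vehicle wells; lower values mean less growth of the strain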
Settings: S. cerevisiae deletion strains, growth OD, locus YER111C, strain swi4, active compounds read low
Among all 5,500 compounds or so, about 2,000 (36%) were called active. Another 18% or so got no clear call; they are omitted. This is one part of the list.
The reply should be a number, written without any unit.

[ask] Indicate the recorded normalized growth value for this compound: C=CCc1ccc(O)c(OC)c1
[reply] 0.996

[ask] Indicate the recorded normalized growth value for this compound: C=C[C@@](C)(O)CCC1C(=C)C[C@H](OC(C)=O)C2C(C)(C)CCCC12C (stereo partly drawn)
[reply] 1.02

[ask] Indicate the recorded normalized growth value for this compound: COc1cc(CNC(=O)CCCC/C=C/C(C)C)ccc1O
[reply] 0.991

---

Assay: chemical genetic growth profiling, strain panel (AID 1159580);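 further: tested at 20 µM; growth read once vehicle control cultures reached saturation at 30 °C; 1 = growth at the plate median or of vehicle wells; lower values mean less growth of the strain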
Conditions: S. cerevisiae deletion strains, growth OD, locus YPR167C, strain met16, active compounds read low
Screen size: about 5,500 compounds; about 2,000 (36%) were called active. About 18% were inconclusive and are not listed. Some of the results follow.
quantity: normalized growth
The reply should be a number, written without any unit.

[ask] Indicate the recorded normalized growth value for this molecule: COC(=O)C[C@H]1C2(C)CC34OC5(C)O[C@@]6([C@H](OC)C(OC(=O)C(C)C)[C@]7(C)C(/C(=C(/OC)C(C)C)C(=O)O[C@H]7c7ccoc7)[C@@]6(O5)[C@H](OC)[C@@]3(OC)C2OC(C)=O)[C@]14C (stereo partly drawn)
[reply] 1.01

[ask] Indicate the recorded normalized growth value for this molecule: CN1CC(CO)=C[C@@H]2c3cccc4[nH]cc(c34)C[C@H]21
[reply] 0.996

[ask] Indicate the recorded normalized growth value for this molecule: NC(=O)c1ccc[n+]([C@@H]2O[C@H](COP(=O)([O-])OP(=O)(O)OC[C@H]3O[C@@H](n4cnc5c(N)ncnc54)[C@H](OP(=O)(O)O)[C@@H]3O)[C@@H](O)[C@H]2O)c1
[reply] 0.99

[ask] Indicate the recorded normalized growth value for this molecule: COC(=O)CC1C2(C)CC34OC5(C)OC6(C7/C(=C(/O)C(C)C)C(=O)OC(c8ccoc8)C7(C)C(OC(=O)C(C)C)C(OC)C6(O5)C13C)C(OC)C4(OC)C2OC(C)=O (stereo not drawn)
[reply] 0.99

[ask] Indicate the recorded normalized growth value for this molecule: COC(=O)C[C@H]1C2(C)CC34OC5(C)O[C@@]6([C@H](OC(C)=O)C(OC(C)=O)[C@]7(C)C(/C(=C(/O)C(C)C)C(=O)O[C@H]7c7ccoc7)[C@@]6(O5)[C@H](OC(C)=O)[C@@]3(O)C2OC(=O)C(C)C)[C@]14C (stereo partly drawn)
[reply] 0.993

[ask] Indicate the recorded normalized growth value for this molecule: Oc1cc(O)c2c(c1)O[C@H](c1cc(O)c(O)c(O)c1)[C@H](O)C2
[reply] 1

[ask] Indicate the recorded normalized growth value for this molecule: CCC(C)C(=O)OC1CC2(C)C(c3ccoc3)OC(=O)CC23OC2(C)OC34C(OC(=O)C(C)C)C3(O)C(OC(=O)C5(C)OC5C)C5(C)CC3(O)C(C)(C5C(=O)OC)C14O2 (stereo not drawn)
[reply] 1.02

[ask] Indicate the recorded normalized growth value for this molecule: NCCCS(=O)(=O)O
[reply] 1

# credit: PubChem BioAssay AID1159580
